- SYSTEM: Guanine nucleotide-binding protein G(o) subunit alpha (Homo sapiens) (UniProt P09471)
- Sequence (P09471 whole entry, looked up): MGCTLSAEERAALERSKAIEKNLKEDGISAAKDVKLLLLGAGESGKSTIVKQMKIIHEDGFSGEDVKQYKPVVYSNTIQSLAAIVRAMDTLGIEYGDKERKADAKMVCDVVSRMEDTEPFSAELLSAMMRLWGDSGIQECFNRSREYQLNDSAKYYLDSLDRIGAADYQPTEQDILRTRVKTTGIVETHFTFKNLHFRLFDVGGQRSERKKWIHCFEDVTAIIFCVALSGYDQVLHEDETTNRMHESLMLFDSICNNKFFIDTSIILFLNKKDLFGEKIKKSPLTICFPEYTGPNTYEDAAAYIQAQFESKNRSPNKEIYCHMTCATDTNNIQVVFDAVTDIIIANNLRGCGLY
- TEST_NAME: modulators of RGS4 binding to Galphao, primary screen, biochemical, multiplexed bead flow cytometry (AID 1415);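 also: fluorescent Galphao activated with aluminum fluoride binding bead-coupled RGS4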
- CONDITION_CONTEXT: at 10 µM, actives lie on both sides
Among all 220,000 compounds or so, about 710 (0.32%) were called active. Rule as the data show it: active = binding response below about 49% or above about 150%; inactive = in between. Shown is part of a subset that was picked to be rich in actives.
Respond with a class label; see class 1 = active, class 0 = inactive

A selection of reference data follows.
{"COMPOUND": "COc1ccc(Cl)cc1C(=O)NNC(=S)NC(=O)/C=C/c1ccco1", "CLASS": "class 0"}
{"COMPOUND": "COc1cc(NS(=O)(=O)c2ccc(NC(=O)c3ccc(S(=O)(=O)N4CCCCC4)cc3)cc2)ncn1", "CLASS": "class 0"}
{"COMPOUND": "Cc1c(S(=O)(=O)NCc2ccccc2)c(=O)n(C)c(=O)n1C", "CLASS": "class 0"}
{"COMPOUND": "CCc1c(C)nc2cc(-c3cccs3)[nH]n2c1=O", "CLASS": "class 0"}
{"COMPOUND": "CCOC(=O)c1c(Cc2ccc(Cl)cc2)c[nH]c1C", "CLASS": "class 0"}
{"COMPOUND": "COc1cc(NC(=O)CSc2nnc3ccc(-c4ccncc4)nn23)cc(OC)c1", "CLASS": "class 0"}

I would be grateful if you could indicate the recorded call for `COC(=O)CNc1nc(Cl)nc(N2CCC(C)CC2)n1` .
class 0

What classification did `Cc1ccc(S(=O)(=O)N(C)CC(=O)N2CCc3ccccc32)cc1` end up with in this test?
class 0
